Target: h-GABAA α5β2γ1 (Homo sapiens, UniProt P31644+Q8N1C3)
Assay: Radioligand binding assay, [3H]RO7239181 competition, HEK293F membranes
Description: The affinity of compounds at GABAA γ1 subunit-containing receptors was measured by competition for [^3H]RO7239181 (67.3 Ci/mmol; Roche) binding to membranes from HEK293F cells (ThermoFisher R79007) expressing human (transiently transfected) receptors of composition […], α2β2γ1, α1β2γ1. […]
MEASURE NAME: Ki (nM)
Just the number in nM, nothing appended.

Check out these entries, answers already filled in.
[
  {
    "COMPOUND STRUCTURE": "COc1ccc2c(c1Cl)C(c1c(F)cccc1F)=NCc1nnc(C3CC3)n1-2",
    "MEASURE NAME": "Ki",
    "VAL": 6.8
  },
  {
    "COMPOUND STRUCTURE": "Fc1ccccc1C1=NCc2nnc(-c3cccnn3)n2-c2ccc(Br)c(Cl)c21",
    "MEASURE NAME": "Ki",
    "VAL": 1.5
  }
]

Next molecule, please.
For Fc1cccnc1C1=NCc2nncn2-c2ccc(Br)c(Cl)c21 , what is its reported Ki?
7.2

---

Target: h-GABAA α1β3γ2 (Homo sapiens, UniProt P14867+P18507)
Test: Radioligand binding assay, [3H]Flumazenil competition, HEK293F membranes
Kindly apply the following: Satisfied if Ki is less than 1000 nM, Not satisfied in every other case.

Worked examples, 6 compounds total:
[
  {
    "COMPOUND": "Clc1cccnc1C1=NCc2nnc(-c3cccnn3)n2-c2ccc(Br)c(Cl)c21 [Example 47]",
    "LABEL CLASS": "Satisfied"
  },
  {
    "COMPOUND": "Cc1ccc2c(c1Cl)C(c1c(F)cccc1F)=NCc1nncn1-2 [Example 17]",
    "LABEL CLASS": "Satisfied"
  },
  {
    "COMPOUND": "COCCc1nnc2n1-c1ccc(Cl)c(Cl)c1C(c1c(F)cccc1F)=NC2 [Example 19]",
    "LABEL CLASS": "Satisfied"
  },
  {
    "COMPOUND": "Clc1ccc2c(c1)C(c1ccccc1)=NCc1nncn1-2 [Estazolam, reference compound]",
    "LABEL CLASS": "Satisfied"
  },
  {
    "COMPOUND": "CC(F)(F)c1ccc2c(c1Cl)C(c1c(F)cccc1F)=NCc1nncn1-2 [Example 21]",
    "LABEL CLASS": "Not satisfied"
  },
  {
    "COMPOUND": "Cc1nnc2n1-c1ccc(C(C)(F)F)c(Cl)c1C(c1c(F)cccc1F)=NC2 [Example 22]",
    "LABEL CLASS": "Not satisfied"
  }
]

Alright, here's another compound for you.
Is 1000 nM strictly greater than the compound's reported Ki? compound: Fc1cccc(F)c1C1=NCc2nnc(-c3cccnn3)n2-c2ccc(C(F)(F)F)c(Cl)c21 [Example 38]
Not satisfied

---

Molecular target: h-GABAA α2β2γ1 (Homo sapiens, UniProt P47869+Q8N1C3)
Test: Two-electrode voltage clamp electrophysiology in Xenopus oocytes, modulation of GABA EC20 current
Assay type: cell-based
Design: host or cells: Xenopus laevis oocytes, RNA micro-injection
Conditions: Table 2; % modulation of GABA EC20 = 100*(Fold increase−1); compound at approx. 30-fold Ki
Listed here: items and their measured Efficacy (GABA)%.
Put your answer as a value accompanied by its unit after it.

Tell me the measured Efficacy (GABA)% of Cc1nnc2n1-c1ccc(C(C)(F)F)c(Cl)c1C(c1c(F)cccc1F)=NC2 , please.
86%

Please answer likewise for Cc1nnc2n1-c1ccc(Br)c(Cl)c1C(c1c(F)cccc1F)=NC2
77%

Could you do the same for Fc1cccc(F)c1C1=NCc2nnc(-c3cccnn3)n2-c2ccc(C(F)(F)F)c(Cl)c21 , please?
114%

And for COc1ccc2c(c1Cl)C(c1c(F)cccc1F)=NCc1nnc(-c3cccnc3)n1-2 ?
63%

Thanks! And COc1ccc2c(c1Cl)C(c1c(F)cccc1F)=NCc1nnc(C3CC3)n1-2 ?
79%
